Biological target: T1, musculus FcRn-alpha (mouse, UniProt Q61559 22-297, limits assumed)
T1 construct: Alpha chain alone; also called mFcRn; mouse FcRn; not shown: His tag and Avi tag
T1 sequence: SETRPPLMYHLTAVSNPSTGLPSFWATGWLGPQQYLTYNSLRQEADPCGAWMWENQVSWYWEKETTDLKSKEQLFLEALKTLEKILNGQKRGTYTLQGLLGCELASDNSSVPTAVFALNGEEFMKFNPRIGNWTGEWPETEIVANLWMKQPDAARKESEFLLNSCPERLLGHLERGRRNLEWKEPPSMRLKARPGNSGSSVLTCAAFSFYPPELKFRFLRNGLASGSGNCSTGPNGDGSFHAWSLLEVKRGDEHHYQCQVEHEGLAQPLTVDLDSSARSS
Assay: ELISA: mFcRn coated, antibody titrated, goat anti-human IgG Fab-HRP, OD450
Kindly supply the reported EC50 (read off the curve) values for the records listed here.

Consider the worked cases shown below.
ZLP193 (antibody, V domains shown, Full-length chimeric antibody: mouse variable domains with human IgG1 or IgG4 heavy constant domain and human kappa or lambda light constant domain; also called chimeric anti-FcRn antibody ZLP193) VH: EVQLQESGPDLVKPSQSLSLTCTVTGYSFTSGYSWHWIRQFPGNRLEWMGYIHDSGGTNYNPSLKSRISITRDTSKNQFFLQLNSVTTEDTATYYCAREENYRYFDVWGAGTTVTVSS VL: DIQMMQSPAIMSASPGEKVTITCSASSSVSYMHWFQQKPGTSPKLWIYSTSNLASGVPARFSGSGSGTSYSLTISRMEAEDAATYYCQQRSSYPPTFGDGTRLEIK = ~9 nM
ZLP198 (antibody, V domains shown, Full-length chimeric antibody with human IgG1 or IgG4 heavy constant and human kappa or lambda light constant domain) VH: EVKLMESGPDLVKPSQSLSLTCTVTGYSITSGYSWHWIRHFPGKKLEWMGYIHNSGSTNYNPSLKSRISISRETSKNQFFLQLNSVTTEDTATYYCAREGYGGYWYFDVWGAGTSVTVSS VL: DIVLTQSPAIMSASPGEKVTMTCSASSSVSYMYWYQQKPGSSPKPWIYGTSNLASGVPVRFSGSGSGTSYSLTISRMEAEDAATYYCQQRSSYPYTFGGGTKLEIK = ~10 nM
ZLP17 (antibody, V domains shown, Full-length chimeric antibody with human IgG1 or IgG4 heavy constant and human kappa or lambda light constant domain) VH: QIQLLQSGAELARPGASVKMSCKASGYTFTSYTMHWVKQRPGQGLEWIGYINPSSGYTNYNQKFKDKATLTADKSSSTAYMQLSSLTSEGSAVYYCARSGLRRVLDYWGQGTSVTVSS VL: ENVLTQSPAILSASPGEKVTMTCSASSSVSYMYWYQQKPGSSPRLLIYDTSNLASGVPVRFSGSGSGTSYSLTISRMEAEDAATYYCQQWSSYPRTFGGGTKLEIK = ~30 nM

[Q] Which EC50 (read off the curve) value is on record for ZLP22 (antibody, V domains shown, Full-length chimeric antibody; human kappa or lambda light constant domain) VH: EVKLVESGAELARPGASVKMSCKASGYTFTSYAMHWVKQRPGQGLEWIGYINPSSGYTNYNQKFKDKATLTADKSSSTAYMQLSSLTSEDSAVYYCARKGLRYAVDYWGQGTSVTVSS VL: DIVMTQSPSSLSVSAGEKVTMSCKSSQSLLNSGNQKNYLAWYQQKPGQPPKLLIYGASTRESGVPDRFTGSGSGTDYTLTISSVQAEDLALYYCQQHYSTPYTFGGGTKLEIK ?
[A] ~20 nM
